Tested on: HEK293T (UBE3A T485A transfected, BAR Wnt reporter)
experiment_summary: Wnt reporter firefly/Renilla luciferase ratio relative to plate median (fold (linear ratio)); higher = more Wnt/beta-catenin reporter activation
setup_conditions: concentration: 1 uM; 24 h
In all, about 1,100 compounds were measured (“Wnt reporter firefly/Renilla luciferase ratio relative to plate median”: median about 1.1, highest 2% from about 1.6 on). Only a selection was taken, and the highest values are over-represented in it overall.
readout_kind: Wnt reporter firefly/Renilla luciferase ratio

1. NC1=NC(O)C2C3OC4(O)OC(C(O)C2(N1)C4O)C3(O)CO (stereo not given)	1.09
2. CCOP(=S)(OCC)Oc1nc(Cl)c(Cl)cc1Cl	1.01
3. Clc1ccc(C(c2ccc(Cl)cc2)C(Cl)Cl)cc1	0.999
4. N#CC(CCc1ccc(Cl)cc1)(Cn1cncn1)c1ccccc1 (stereo not given)	1.03
5. O=[N+]([O-])c1c(Cl)c(Cl)c(Cl)c(Cl)c1Cl	1
6. c1ccc(-c2ccccc2)cc1	1.01
7. CC(C)N1C(=O)c2ccccc2NS1(=O)=O	0.964
8. CCNc1nc(NC(C)C)nc(SC)n1	0.813
9. CCCCCCCCn1sccc1=O	1.15
10. Cc1cc(C)cc(C)c1	1.15
